# Study Target: human ether-à-go-go-related gene (hERG) potassium channel (human, UniProt Q12809)
# Sequence (Q12809 whole entry, looked up): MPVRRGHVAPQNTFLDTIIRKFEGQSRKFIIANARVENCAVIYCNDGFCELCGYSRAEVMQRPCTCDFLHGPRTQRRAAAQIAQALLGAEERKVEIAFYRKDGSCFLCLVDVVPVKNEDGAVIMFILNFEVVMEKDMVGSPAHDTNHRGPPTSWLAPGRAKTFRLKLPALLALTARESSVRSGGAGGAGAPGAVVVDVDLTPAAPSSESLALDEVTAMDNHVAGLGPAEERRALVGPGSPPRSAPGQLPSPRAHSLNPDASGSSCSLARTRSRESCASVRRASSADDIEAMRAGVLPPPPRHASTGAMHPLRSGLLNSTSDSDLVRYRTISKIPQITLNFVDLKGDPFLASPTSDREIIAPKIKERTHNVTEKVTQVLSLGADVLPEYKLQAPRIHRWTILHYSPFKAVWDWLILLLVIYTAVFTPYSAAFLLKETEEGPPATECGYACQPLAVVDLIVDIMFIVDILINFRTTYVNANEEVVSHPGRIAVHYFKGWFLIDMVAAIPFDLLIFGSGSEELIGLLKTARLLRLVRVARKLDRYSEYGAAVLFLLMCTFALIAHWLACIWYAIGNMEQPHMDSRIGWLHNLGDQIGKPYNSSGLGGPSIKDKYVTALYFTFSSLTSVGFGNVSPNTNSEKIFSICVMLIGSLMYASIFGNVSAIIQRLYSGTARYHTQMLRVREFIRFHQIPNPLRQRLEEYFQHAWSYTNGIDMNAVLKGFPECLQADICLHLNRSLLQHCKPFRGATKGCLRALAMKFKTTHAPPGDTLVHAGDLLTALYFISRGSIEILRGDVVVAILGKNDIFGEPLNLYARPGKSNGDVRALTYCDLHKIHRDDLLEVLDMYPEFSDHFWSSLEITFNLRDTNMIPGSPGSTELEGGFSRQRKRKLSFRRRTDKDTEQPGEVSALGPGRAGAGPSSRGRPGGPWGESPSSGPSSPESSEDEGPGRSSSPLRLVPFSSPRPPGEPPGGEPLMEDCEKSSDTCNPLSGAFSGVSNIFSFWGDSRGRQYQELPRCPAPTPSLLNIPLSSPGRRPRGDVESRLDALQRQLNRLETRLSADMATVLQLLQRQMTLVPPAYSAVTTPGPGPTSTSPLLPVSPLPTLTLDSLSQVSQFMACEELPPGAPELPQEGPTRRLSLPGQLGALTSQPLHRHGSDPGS
# Protocol Summary: primary screen, population patch clamp on CHO cells stably expressing hERG; higher = less effect of the substance
The campaign covered roughly 310,000 compounds. About 2,200 (0.71%) showed an effect of 50% or more. Effects have a minus sign here. Only a selection was taken, and strong results are over-represented in it overall.
Property Name: hERG current change (%, negative = inhibition) at 1uM (%)
Give bare numbers, in %.

sample_smiles=O=C(Nc1ccc(-c2csc(-c3ccccc3)n2)cc1)c1ccccc1Cl value=16.9
sample_smiles=CCOC(=O)O[C@]1(C(=O)COC(=O)CC)CC[C@H]2[C@@H]3CCC4=CC(=O)C=C[C@]4(C)[C@H]3[C@@H](O)C[C@@]21C value=8.4
sample_smiles=CCCc1cc(C(=O)NCCc2ccccc2)no1 value=-4.85
sample_smiles=CCc1ccc(OCC(=O)O/N=C(\N)c2cccnc2)cc1 value=0.0916

Kindly review the next compound as well.
Would you kindly share the measured hERG current change (%, negative = inhibition) at 1uM for CCCN1CCC[C@@H]2Cc3nc(N)ncc3C[C@H]21.Cl ? 8.86
